Reference source: patent US9012647B2

# ASSAY METHOD TEXT: Cyclic voltammetry (oxidation potential)
# Format: physicochemical
# TEST SETTINGS: in PBS, vs NHE
MEASURED METRIC: oxidation potential Eox (V)
// return numeric value only (unit: V, not printed)

Sample `CC(=O)Oc1ccccc1C(=O)OC1CC(C)(C)N([O])C(C)(C)C1` ; oxidation potential Eox observed: 0.83

###

# ASSAY METHOD TEXT: Superoxide scavenging: ferricytochrome c reduction, hypoxanthine/xanthine oxidase
# Assay type: biochemical
# TEST SETTINGS: PBS pH 7.4, 25° C., cyt c 60 μM; read-out: IC50, reduction rate of ferricytochrome c (superoxide scavenging)
pIC50: −log10 of the molar value.
MEASURED METRIC: pIC50

In plain terms, CC1(C)CCCC(C)(C)N1[O] [TEMPO, 2,2,6,6-Tetramethyl-1-piperidinyloxy] has a documented pIC50 of ~4.30
